Experiment: Pharmacokinetic study in mice
Assay type: in vivo
Settings: ICR/CD-1, mouse, plasma, IP, read-out: T1/2 in the blood
PROPERTY_LABEL: half-life (h)
// units = h; emit number, no label

Enquiry: Find the recorded half-life belonging to CC(C)c1ccc(-c2cn3nc(N4CCC(CN5CCN(C)CC5)CC4)sc3n2)cc1 and report it.
Return: 2.92
